cell viability overview
Tested on: NOMO1
Test: cell viability relative to DMSO control; higher = less cytotoxic
Details: RPMI 5 mM glucose + 10% dialyzed FBS; 48 h; 0.0632 µM
quantityName: cell viability (%)

| molecule | measurementUnit | reportedValue |
| --- | --- | --- |
| Cc1cc2c(F)c(Oc3ncnn4cc(OC[C@@H](C)O)c(C)c34)ccc2[nH]1 | % | 90.3 |
| FC(F)c1nc2ccccc2n1-c1nc(N2CCOCC2)nc(N2CCOCC2)n1 | % | 76.5 |
| Nc1ncnc2c1c(-c1cnc3[nH]ccc3c1)nn2C1CCCC1 | % | 131 |
| CCOC(=O)\C1=C(/C)N\C2=C(C1C3=CC=C(C=C3)C4=CC=CC=C4)\C(=O)CC(C)(C)C2 (stereo not drawn) | % | 113 |
| Cc1ccc([S+](=O)([O-])N[C@@H](Cc2ccccc2)C(=O)CCl)cc1 | % | 100 |
| COc1ncc(-c2ccc3nccc(-c4ccnnc4)c3c2)cc1N[S+](=O)([O-])c1ccc(F)cc1F | % | 72.9 |
| C[C@@H]\1CC(=O)N\N=C1C2=CC=C(NN=C(C#N)C#N)C=C2 | % | 95.3 |
| CC(C)C(=O)Oc1ccc(CO)cc1[C@H](CCN(C(C)C)C(C)C)c1ccccc1 | % | 73.8 |
| OC1=CC2=C(C(=C1)O)C(=O)\C=C(/O2)C3=CC=CC=C3 | % | 115 |
| CN(C)[C@H]\1[C@@H]2C[C@H]3C(=C(O)\[C@]2(O)C(=O)\C(=C1O)C(N)=O)/C(=O)C4=C(O)C=CC=C4[C@@]3(C)O | % | 112 |
| CN1CCCN=C1/C=C/c1cccs1.O=C(O)c1cc2ccccc2c(Cc2c(O)c(C(=O)O)cc3ccccc23)c1O | % | 110 |
| CNc1nccc(-c2cccnc2Oc2cc(C(=O)Nc3cccc(C(F)(F)F)c3)ccc2C)n1 | % | 108 |
| CN1\C(=C(\O)C2=CC=CC=C2[S+]1([O-])=O)C(=O)NC3=NC=C(C)S3 | % | 81.5 |
| C\C1=C(\C=C(\C#N)C(=O)N1)C2=CC=NC=C2 | % | 115 |
| CC(C)(C)c1[nH]cnc1/C=c1\[nH]c(=O)/c(=C/c2ccccc2)[nH]c1=O | % | 29.5 |
| S=P(N1CC1)(N1CC1)N1CC1 | % | 104 |
| C=C[C@H]1CN2CC[C@H]1C[C@H]2[C@H](O)c1ccnc2ccc(OC)cc12 | % | 104 |
| CC(C)C[C@H](NC(=O)[C@H](CCc1ccccc1)NC(=O)CN1CCOCC1)C(=O)N[C@@H](Cc1ccccc1)C(=O)N[C@@H](CC(C)C)C(=O)[C@@]1(C)CO1 | % | 8.53 |

----------
Tested on: P12-Ichikawa
Assay: cell viability relative to DMSO control; higher = less cytotoxic
Conditions: RPMI 5 mM glucose + 10% dialyzed FBS; 48 h; 0.00702 µM

| compound | cell viability [%] |
| --- | --- |
| Cc1c(NC(=O)OC[C@@H]2COCCN2)cn2ncnc(Nc3ccc4c(cnn4Cc4cccc(F)c4)c3)c12 | 88.9 |
| COc1ccc(C2CNC(=O)C2)cc1OC1CCCC1 (centres undefined) | 89.7 |
| C[C@]12CCC(=O)C=C1CC[C@@H]1[C@@H]2CC[C@@]2(C)[C@H]1CC[C@]2(C)O | 100 |
| Cn1c(CNc2ccc(C(=N)N)cc2)nc2cc(C(=O)N(CCC(=O)O)c3ccccn3)ccc21 | 112 |

Numbers sourced from the supplement of paper PMC11451515.
